biological target: human ENPP2 (Homo sapiens (Human), UniProt Q13822); experiment: Inhibitory activity on human ENPP2 (FS-3 assay); format: biochemical; conditions: read-out: IC50
measurementLabel: IC50 (nM)
Write the value in nM as a bare number.

Record lookup: for human ENPP2 (Homo sapiens (Human), UniProt Q13822), what IC50 belongs to O=C(NC[C@H]1CN(c2ccc3[nH]c(=O)oc3c2)C(=O)O1)c1cnc(NCc2cccc(OC(F)(F)F)c2)nc1 ?
2.8

----------
target: human ENPP2 (Homo sapiens (Human), UniProt Q13822); test: Inhibitory activity on human ENPP2 (FS-3 assay); format: biochemical; details: human ENPP2, FS-3 substrate, 30 min at 37° C.; read-out: IC50
measurementLabel: pIC50
Scale explanation: pIC50 corresponds to minus log10 of a concentration expressed in moles per litre.

See these solved cases before continuing.
1. O=C(CN1CCC(c2cnc(NC3Cc4ccccc4C3)nc2)CC1)N1CCc2[nH]nnc2C1
8.54
2. O=C(Cc1nnc(-c2cnc(NC3Cc4ccccc4C3)nc2)o1)N1CCc2[nH]c(=O)ccc2C1
7.97
3. Nc1nc2c(s1)CCN(C(=O)Cc1nnc(-c3cnc(NC4Cc5ccccc5C4)nc3)o1)C2
7.95
4. O=C(CCN1CCN(c2cnc(NC3Cc4ccccc4C3)nc2)CC1)N1CCc2[nH]nnc2C1
8.17

Record lookup: for human ENPP2 (Homo sapiens (Human), UniProt Q13822), what pIC50 belongs to O=C(NCCC(=O)N1CCc2[nH]nnc2C1)c1cnc(NC2Cc3ccccc3C2)nc1 ?
8.48

Also O=C(Cn1cc(-c2cnc(NC3Cc4ccccc4C3)nc2)c(CN2CCNCC2)n1)N1CCc2[nH]nnc2C1 , if possible.
8.38

Also O=C(Cc1nnc(-c2cnc(NC3Cc4ccccc4C3)nc2)o1)N1CCc2nc[nH]c2C1 , if possible.
8.40

----------
assay: Microsomal stability, rat liver microsomes; format: in vitro ADME; details: male, SD, pH 7.4; rat liver microsomes (r), 0.5 mg/mL, NADPH regenerating system; read-out: MS (microsomal stability) t1/2
measurementLabel: half-life at 1 µM (min)
Write the value in min as a bare number.

See these solved cases before continuing.
1) O=C(Cn1cc(-c2cnc(NC3Cc4ccccc4C3)nc2)c(-c2ccncc2)n1)N1CCc2[nH]nnc2C1
30
2) O=C(Cn1cc(-c2cnc(NC3Cc4ccccc4C3)nc2)c(NC2CCC2)n1)N1CCc2[nH]nnc2C1
10.3
3) O=C(Cn1cc(-c2cnc(NC3Cc4ccccc4C3)nc2)c(-c2ccccn2)n1)N1CCc2[nH]nnc2C1
25.2

Would you kindly share the measured half-life at 1 µM for CCN(CC)c1nn(CC(=O)N2CCc3[nH]nnc3C2)cc1-c1cnc(NC2Cc3ccccc3C2)nc1 ?
3.9

----------
Measured IC50 values are reported for all entries that follow.
target: human ENPP2 (Homo sapiens (Human)); experiment: Inhibitory activity on human ENPP2 (FS-3 assay); type: biochemical; conditions: human ENPP2, FS-3 substrate, 30 min at 37° C.; read-out: IC50
Write the value in nM as a bare number.

See these solved cases before continuing.
1. O=C(CN1CCN(c2cnc(NC3Cc4ccccc4C3)nc2)CC1)Nc1ccc2[nH]c(=O)oc2c1
2.4
2. O=C(Cc1nnc(-c2cnc(NCc3cccc(OC(F)(F)F)c3)nc2)o1)N1CCc2[nH]nnc2C1
2

Would you kindly share the measured IC50 for O=C(CN1CCN(c2cnc(NCc3cccc(OC(F)(F)F)c3)nc2)CC1)N1CCc2[nH]nnc2C1 ?
4.1

Also O=C(CCN1CCc2[nH]nnc2C1)N1CCN(c2cnc(NCc3cccc(OC(F)(F)F)c3)nc2)CC1 , if possible.
3.7

Also O=C(Cc1nnc(-c2cnc(NC3Cc4ccccc4C3)nc2)o1)N1CCc2[nH]ncc2C1 , if possible.
8.1

Also O=C(CN1CCc2[nH]nnc2C1)N1CCN(c2cnc(NC3Cc4ccccc4C3)nc2)CC1 , if possible.
3.4

Also O=C(Cc1nnc(-c2cnc(NC3CC=C(c4cccc(Cl)c4)CC3)nc2)o1)N1CCc2[nH]nnc2C1 (stereo not drawn) , if possible.
2.4

Also O=c1[nH]c2ccc(/C(CN3CCN(c4cnc(NC5Cc6ccccc6C5)nc4)CC3)=N\O)cc2o1 , if possible.
3.9

Also O=C(NCCC(=O)N1CCc2[nH]nnc2C1)c1cnc(NCc2cccc(OC(F)(F)F)c2)nc1 , if possible.
2.1

Also O=c1[nH]c2ccc(C3=NOC(CN4CCN(c5cnc(NC6Cc7ccccc7C6)nc5)CC4)C3)cc2o1 (stereo not drawn) , if possible.
11.8
